# Test system: MDA-MB-468 breast
# protocol_summary: NCI-60 one-dose screen, 48 h
# protocol_conditions: 10 µM unless noted
Compounds without any hit were thinned out: in the full panel of roughly 83,000, 20% have a hit. Calls of active or inactive are those of the source. Rule for the calls: active = growth percent below 10; inactive = the rest.
Lab note: assign the record to one of true (1) = active, false (0) = inactive

Example cases with answers are listed next.
Qu. I would be grateful if you could indicate the recorded call for Cn1nc(-c2ccccc2)c2c(-c3ccccc3)onc2c1=O .
Ans. false (0)

Qu. I would be grateful if you could indicate the recorded call for O=c1c2cccc(F)c2sc2c(N3CCNCC3)nc3ccccc3c12 .
Ans. false (0)

Qu. I would be grateful if you could indicate the recorded call for C=C1C(=O)O[C@H]2[C@H]1CC/C(COC(=O)NCc1ccc(Cn3c(=O)sn(-c4ccc(OC)cc4)c3=O)cc1)=C\CC[C@@]1(C)O[C@@H]21 .
Ans. false (0)

Qu. I would be grateful if you could indicate the recorded call for COc1cc(/C=C/C(=O)c2c(C)oc3nc[nH]c(=O)c23)ccc1O .
Ans. false (0)

Qu. I would be grateful if you could indicate the recorded call for O=S(=O)(c1ccccc1)n1ccc(-c2ccc3c(c2)CCO3)n1 .
Ans. false (0)

Could you now look at the following compound, please?
Qu. I would be grateful if you could indicate the recorded call for Cc1ccc(NS(=O)(=O)c2ccc3c(c2)C2OCCC2C(c2ccc(C(=O)C(C)C)cc2)N3)cc1C (configuration not stated) .
Ans. true (1)

###

# Test system: MALME-3M melanoma
# protocol_summary: NCI-60 one-dose screen, 48 h (100 = growth as untreated, 0 = no growth, -100 = all killed)
# protocol_conditions: 10 µM
About 83,000 compounds went through this panel and 20% of them were active in at least one assay; those are over-represented in the sample as a whole.
growth by entry:
A number alone suffices; assume %.

These recorded examples may help you get a feel for the data.
Qu. Write growth of Cc1cc(N=C2NC(=O)S/C2=C\c2ccc(F)cc2)n[nH]1 ; system used: MALME-3M melanoma
Ans. -7

Qu. Write growth of O=C(CN1CCN(c2ncnc3c2cnn3-c2ccccc2)CC1)Nc1ccc(Br)cc1 ; system used: MALME-3M melanoma
Ans. -54.4

Qu. Write growth of COc1ccc(C(=O)COc2ccc(NC(=O)Nc3ccc(Cl)c(C(F)(F)F)c3)cc2)cc1 ; system used: MALME-3M melanoma
Ans. 31.3

Qu. Write growth of CC(C)(C)c1cc(/C=C2\S/C(=N/c3ncn[nH]3)NC2=O)cc(C(C)(C)C)c1O ; system used: MALME-3M melanoma
Ans. 36.8

Qu. Write growth of O=C(CC(=O)Nc1ccc(Oc2ncnc3scc(Nc4n[nH]c(=S)s4)c23)cc1)Nc1ccc(Br)cc1 ; system used: MALME-3M melanoma
Ans. 105

Qu. Write growth of O=C(Nc1ccc(Oc2ncnc3scc(Nc4n[nH]c(=S)s4)c23)cc1)C1(C(=O)Nc2cccc(C(F)(F)F)c2)CC1 ; system used: MALME-3M melanoma
Ans. 95.8

Qu. Write growth of C#C[C@]1(O)CC[C@H]2[C@@H]3CC=C4c5sc(Nc6ccc(N(C)C)cc6)nc5CC[C@]4(C)[C@H]3CC[C@@]21C ; system used: MALME-3M melanoma
Ans. -44.7

Qu. Write growth of Cc1ccc2sc3c(c2c1)Oc1nc[nH]c(=O)c1C3c1cccc(F)c1 (configuration not stated) ; system used: MALME-3M melanoma
Ans. 98.7

Others:
Qu. Write growth of COc1ccc(C(=O)COc2ccc(NC(=O)Nc3ccccc3)cc2)cc1 ; system used: MALME-3M melanoma
Ans. 85.3

Qu. Write growth of COc1cc2oc(-c3cccc(C(=O)Nc4ccc(Cl)cc4)c3)cc(=O)c2c(OCCN)c1OC ; system used: MALME-3M melanoma
Ans. -67.9

Qu. Write growth of COc1cc(C2CC(c3ccccc3)=Nc3c(N)nc(N)nc3N2)ccc1Oc1nc(NCCO)nc(N2CCOCC2)n1 (configuration not stated) ; system used: MALME-3M melanoma
Ans. 93.3

Qu. Write growth of Cn1cc(-c2nnc(N)nc2-c2c[nH]c3ccccc23)c2cc(Br)cnc21 ; system used: MALME-3M melanoma
Ans. 45.9

Qu. Write growth of Cn1cc(-c2nnc(N)nc2-c2c[nH]c3ccc(F)cc23)c2cc(Br)cnc21 ; system used: MALME-3M melanoma
Ans. 106
